# Test system: GST-JAK2(808-1132) (Homo sapiens, UniProt O60674)
# Construct: GST-JAK2(808-1132); purchased Invitrogen (Carlsbad, USA) #4288
# Sequence (O60674 808-1132): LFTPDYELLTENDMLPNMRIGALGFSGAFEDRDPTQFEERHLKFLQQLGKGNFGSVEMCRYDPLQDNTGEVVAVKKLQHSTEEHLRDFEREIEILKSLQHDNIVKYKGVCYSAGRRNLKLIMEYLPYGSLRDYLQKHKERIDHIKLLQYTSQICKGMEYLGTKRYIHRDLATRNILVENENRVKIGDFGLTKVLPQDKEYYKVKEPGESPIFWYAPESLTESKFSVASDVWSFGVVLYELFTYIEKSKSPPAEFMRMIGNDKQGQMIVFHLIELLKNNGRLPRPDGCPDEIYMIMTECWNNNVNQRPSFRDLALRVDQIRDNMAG
# Test summary: JAK2 kinase assay (Caliper mobility shift, LabChip 3000)
# Assay type: biochemical
Property name: log10 IC50 (log10 of the value in nM)

Cc1ccc(Nc2ncc3ccn(-c4ccc(CN5CCOCC5)cc4)c3n2)cc1C    1.62
CN(C)C1CCN(C(=O)c2ccc(Nc3ncc4ccn(-c5ccc(S(C)(=O)=O)cc5)c4n3)cc2)CC1    0.54
CCN1CCCC1CNC(=O)c1cc(Nc2ncc3ccn(-c4ccc(S(C)(=O)=O)cc4)c3n2)ccc1F (stereo not drawn)    1.46
CN1CCN(C(=O)c2cc(Nc3ncc4ccn(-c5ccc(S(C)(=O)=O)cc5)c4n3)ccc2F)CC1    1.58
Cc1cc(Nc2ncc3ccn(-c4ccc(CN5CCOCC5)cc4)c3n2)ccc1F    1.45
Cc1ccc(Nc2ncc3ccn(-c4cc(F)c(CN5CCNC(=O)C5)c(F)c4)c3n2)cc1CN1CCNCC1    0.54
C[C@@H]1CN(C(=O)c2cccc(Nc3ncc4ccn(-c5cc(F)c(CN6CCOCC6)c(F)c5)c4n3)c2)C[C@H](C)N1    0.63
CCOc1ccc(Nc2ncc3cc(C)n(-c4ccc(C(=O)N5CCOCC5)c(F)c4)c3n2)cc1OCC    1.67
CC(C)(C)OC(=O)N1CCN(C(=O)c2ccc(Nc3ncc4ccn(-c5ccc(S(C)(=O)=O)cc5)c4n3)cc2)CC1    0.68
COc1cc(Nc2ncc3cc(C)n(-c4ccc(CN5CCOCC5)c(F)c4)c3n2)ccc1F    2.36
CCOc1ccc(Nc2ncc3cc(C)n(-c4ccc(CC(=O)N5CCS(=O)(=O)CC5)c(F)c4)c3n2)cc1OCC    1.03
CS(=O)(=O)c1ccc(-n2ccc3cnc(Nc4ccc(N5CCNC6(CC6)C5)nc4)nc32)cc1    1.04

----------
# Test system: JAK2-dependent nuclear translocation of STAT5-GFP in U-2 OS osteosarcoma cells
# Test summary: STAT5 nuclear translocation assay (Cellomics), rhEpo stimulated U-2 OS STAT5-GFP cells
# Type: cell-based
# Measurement context: Homo sapiens, U2OS; STAT5 translocation pathway
# IC50 listing for each entry below
Property name: IC50 (nM)

CC1(C)CN(Cc2ccc(Nc3ncc4ccn(-c5cc(F)c(CN6CCOCC6)c(F)c5)c4n3)cc2)CCN1    12.3
CN1CCN(c2cc(Nc3ncc4ccn(-c5cc(F)c(CN6CCOCC6)c(F)c5)c4n3)ccn2)CC1=O    81.5
Fc1cc(-n2ccc3cnc(Nc4ccc([C@H]5CNCCN5)cc4)nc32)cc(F)c1CN1CCOCC1    8.6
C[C@@H]1CN(C(=O)c2cc(Nc3ncc4ccn(-c5cc(F)c(CN6CCOCC6)c(F)c5)c4n3)ccn2)C[C@H](C)N1    135
O=C(c1cc(Nc2ncc3ccn(-c4cc(F)c(CN5CCOCC5)c(F)c4)c3n2)ccn1)N1CCOC2(COC2)C1    152
COC1CN(Cc2c(F)cc(-n3ccc4cnc(Nc5ccc(C)c(CN6CCNCC6)c5)nc43)cc2F)C1    150

----------
# Test system: ALK (Homo sapiens, UniProt Q9UM73)
# Construct: using the recombinant domains of cMet, cKit, ALK and PDGFRalpha kinases
# Sequence (Q9UM73 1116-1392 limits assumed, species assumed): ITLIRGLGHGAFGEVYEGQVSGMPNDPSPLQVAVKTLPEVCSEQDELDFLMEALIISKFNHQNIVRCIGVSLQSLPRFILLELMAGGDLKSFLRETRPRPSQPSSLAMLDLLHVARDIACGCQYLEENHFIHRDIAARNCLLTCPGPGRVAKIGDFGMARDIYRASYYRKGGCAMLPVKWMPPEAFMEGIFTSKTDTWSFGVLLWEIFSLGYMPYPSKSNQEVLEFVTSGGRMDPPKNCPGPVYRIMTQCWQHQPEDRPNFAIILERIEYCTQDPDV
# Test summary: ALK LanthaScreen TR-FRET kinase phosphorylation assay
# Measurement context: recombinant kinase domain
Property name: IC50

Cc1ccc(Nc2ncc3ccn(-c4cc(F)c(CN5CCOCC5)c(F)c4)c3n2)cc1CN1CCNCC1    9.05 µM
Cc1ccc(Nc2ncc3ccn(-c4ccc(C(=O)N5CCN(CCO)CC5)cc4)c3n2)cc1C    > 10 µM
N#Cc1ccc(Nc2ncc3ccn(-c4ccc(C(=O)N5CCOCC5)cc4)c3n2)cn1    > 10 µM
C[C@@H]1CN(c2ccc(Nc3ncc4ccn(-c5ccc(NS(C)(=O)=O)cc5)c4n3)cn2)C[C@H](C)N1    > 10 µM
CC(C)Oc1ccc(Nc2ncc3ccn(-c4ccc(C#N)cc4)c3n2)cc1    > 10 µM
CN1CCN(C(=O)c2cccc(Nc3ncc4ccn(-c5cc(F)c(CN6CCOCC6)c(F)c5)c4n3)c2)CC1    > 10 µM
COCc1ccc(Nc2ncc3ccn(-c4cc(F)c(CN5CCS(=O)(=O)CC5)c(F)c4)c3n2)cc1    > 10 µM
Cc1cc(Nc2ncc3ccn(-c4ccc(C(=O)N5CCOCC5)c(F)c4)c3n2)nn1C    > 10 µM
COc1cc(Nc2ncc3ccn(-c4ccc(C(=O)N5CCOCC5)c(F)c4)c3n2)ccc1F    > 10 µM
Cn1cc(Nc2ncc3ccn(-c4ccc(CC(=O)N5CCOCC5)cc4)c3n2)cn1    > 10 µM
CC1(C)NCCN(c2cc(Nc3ncc4ccn(-c5cc(F)c(CN6CCOCC6)c(F)c5)c4n3)ccn2)C1=O    > 10 µM
Cc1ccc(Nc2ncc3ccn(-c4cc(F)c(CN5CCNC(=O)C5)c(F)c4)c3n2)cc1CN1CCNCC1    > 10 µM
Fc1cc(-n2ccc3cnc(Nc4ccnc(CN5CCNCC5)c4)nc32)cc(F)c1CN1CCOCC1    > 10 µM
COCc1c(F)cc(-n2ccc3cnc(Nc4ccc(N5CCN(C)CC5)nc4)nc32)cc1F    > 10 µM
CN1CCN(c2ccc(Nc3ncc4ccn(-c5cc(F)c(CN6CCS(=O)(=O)CC6)c(F)c5)c4n3)nc2)CC1    > 10 µM
Cc1ccc(Nc2ncc3ccn(-c4ccc(C(=O)N5CCOCC5)cc4)c3n2)cn1    > 10 µM
CN1CCN(c2ccc(Nc3ncc4ccn(-c5ccc(C#N)cc5)c4n3)cn2)CC1    > 10 µM
OCCN1CCOC[C@@H]1c1ccc(Nc2ncc3ccn(-c4cc(F)c(CN5CCOCC5)c(F)c4)c3n2)cc1    > 10 µM

----------
# Test system: cKit (Homo sapiens, UniProt P10721)
# Construct: using the recombinant domains of cMet, cKit, ALK and PDGFRalpha kinases
# Sequence (P10721 589-937 limits assumed): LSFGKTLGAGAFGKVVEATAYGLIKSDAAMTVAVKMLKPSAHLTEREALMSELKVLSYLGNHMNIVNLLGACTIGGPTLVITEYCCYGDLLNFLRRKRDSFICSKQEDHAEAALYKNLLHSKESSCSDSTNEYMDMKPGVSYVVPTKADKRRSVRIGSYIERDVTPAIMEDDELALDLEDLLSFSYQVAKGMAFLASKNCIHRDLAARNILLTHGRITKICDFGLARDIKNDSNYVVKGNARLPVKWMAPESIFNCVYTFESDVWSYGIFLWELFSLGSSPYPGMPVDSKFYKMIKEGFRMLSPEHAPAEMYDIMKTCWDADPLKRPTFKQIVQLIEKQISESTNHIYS
# Test summary: cKit LanthaScreen TR-FRET kinase phosphorylation assay
# Measurement context: recombinant kinase domain
// returns Condition not met unless IC50 is strictly below 5 µM, in which case Condition met

COCc1ccc(Nc2ncc3ccn(-c4cc(F)c(CN5CCS(=O)(=O)CC5)c(F)c4)c3n2)cc1    Condition not met
Cn1cc(Nc2ncc3ccn(-c4ccc(CC(=O)N5CCOCC5)cc4)c3n2)cn1    Condition met
CC1(C)NCCN(c2cc(Nc3ncc4ccn(-c5cc(F)c(CN6CCOCC6)c(F)c5)c4n3)ccn2)C1=O    Condition not met
COCc1c(F)cc(-n2ccc3cnc(Nc4ccc(N5CCN(C)CC5)nc4)nc32)cc1F    Condition met
N#Cc1ccc(Nc2ncc3ccn(-c4ccc(C(=O)N5CCOCC5)cc4)c3n2)cn1    Condition not met
C[C@@H]1CN(c2ccc(Nc3ncc4ccn(-c5ccc(NS(C)(=O)=O)cc5)c4n3)cn2)C[C@H](C)N1    Condition met
COc1cc(Nc2ncc3ccn(-c4ccc(C(=O)N5CCOCC5)c(F)c4)c3n2)ccc1F    Condition not met
Cc1cc(Nc2ncc3ccn(-c4ccc(C(=O)N5CCOCC5)c(F)c4)c3n2)nn1C    Condition not met
CN1CCN(c2ccc(Nc3ncc4ccn(-c5ccc(C#N)cc5)c4n3)cn2)CC1    Condition met
CN1CCN(C(=O)c2cccc(Nc3ncc4ccn(-c5cc(F)c(CN6CCOCC6)c(F)c5)c4n3)c2)CC1    Condition met
Cc1ccc(Nc2ncc3ccn(-c4ccc(C(=O)N5CCN(CCO)CC5)cc4)c3n2)cc1C    Condition met
Cc1ccc(Nc2ncc3ccn(-c4cc(F)c(CN5CCOCC5)c(F)c4)c3n2)cc1CN1CCNCC1    Condition met
Cc1ccc(Nc2ncc3ccn(-c4ccc(C(=O)N5CCOCC5)cc4)c3n2)cn1    Condition not met
Fc1cc(-n2ccc3cnc(Nc4ccnc(CN5CCNCC5)c4)nc32)cc(F)c1CN1CCOCC1    Condition not met
Cc1ccc(Nc2ncc3ccn(-c4cc(F)c(CN5CCNC(=O)C5)c(F)c4)c3n2)cc1CN1CCNCC1    Condition met
OCCN1CCOC[C@@H]1c1ccc(Nc2ncc3ccn(-c4cc(F)c(CN5CCOCC5)c(F)c4)c3n2)cc1    Condition met
CN1CCN(c2ccc(Nc3ncc4ccn(-c5cc(F)c(CN6CCS(=O)(=O)CC6)c(F)c5)c4n3)nc2)CC1    Condition not met
CC(C)Oc1ccc(Nc2ncc3ccn(-c4ccc(C#N)cc4)c3n2)cc1    Condition not met

----------
# Tested on: JAK2-dependent nuclear translocation of STAT5-GFP in U-2 OS osteosarcoma cells
# Test summary: STAT5 nuclear translocation assay (Cellomics), rhEpo stimulated U-2 OS STAT5-GFP cells
# Assay type: cell-based
# Measurement context: Homo sapiens, U2OS; STAT5 translocation pathway
pIC50: −log10 of the molar value.
Mark Met for reported pIC50 of 7 or greater; mark Not met for anything smaller.

Fc1cc(-n2ccc3cnc(Nc4cnc(N5CCNCC5)c(Cl)c4)nc32)cc(F)c1CN1CCOCC1    Met
Cc1ccc(Nc2ncc3ccn(-c4ccc(C(=O)N5CCS(=O)(=O)CC5)c(F)c4)c3n2)cc1CN1CCNC(C(F)(F)F)C1 (racemic)    Met
C[C@@H]1CN(c2ccc(Nc3ncc4ccn(-c5ccc(C(=O)N6CCOCC6)c(F)c5)c4n3)cn2)C[C@H](C)N1    Not met
CC1(C)NCCN(c2cc(Nc3ncc4ccn(-c5cc(F)c(CN6CCOCC6)c(F)c5)c4n3)ccn2)C1=O    Met
CN1CCN(Cc2cc(Nc3ncc4ccn(-c5cc(F)c(CN6CCOCC6)c(F)c5)c4n3)ccn2)CC1    Met
Fc1cc(-n2ccc3cnc(Nc4ccc(CN5CCNCC5)nc4)nc32)cc(F)c1CN1CCOCC1    Not met
